system: T1, recombinant PfPFD5 (6x-His-PfPFD5) (P. falciparum 3D7, UniProt Q8II82 1-248, RED-NHS dye label (labelled protein in MST))
T1 construct: Prefoldin subunit 5 of P. falciparum 3D7, PF3D7_1128100; CDS amplified from Pf3D7 cDNA; Resolved at 30 kDa on SDS-PAGE; also called rPfPFD5; Prefoldin subunit 5; source: E. coli BL21 (λDE3), pET-28a(+), purified (Ni-NTA)
T1 sequence: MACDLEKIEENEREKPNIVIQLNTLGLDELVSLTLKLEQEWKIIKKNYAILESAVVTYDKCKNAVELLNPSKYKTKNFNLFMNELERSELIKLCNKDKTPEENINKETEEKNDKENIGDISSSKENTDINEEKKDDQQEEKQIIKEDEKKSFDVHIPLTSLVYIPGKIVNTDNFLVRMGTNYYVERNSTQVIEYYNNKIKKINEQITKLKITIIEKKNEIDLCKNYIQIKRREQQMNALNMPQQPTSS
assay: MST; Monolith NT.115; PfPFD3 or PfPFD5 labelled with RED-NHS dye, titrated with the other PfPFD subunits; 1× PBS pH 7.5, 0.01% tween-20; 10 min at room temperature; steady-state analysis
test-context: both partners purified
metric: pKd
Here pKd is given on a logarithmic scale as minus log10 of the concentration in mol/L.

recombinant PfPFD3 (6x-His-PfPFD3) (natural protein, RED-NHS dye label where it was the labelled protein in MST, Prefoldin subunit 3 of P. falciparum 3D7, PF3D7_0718500; CDS amplified from Pf3D7 cDNA; Resolved at 24 kDa on SDS-PAGE; Unlabelled when titrated onto labelled PfPFD5; also called rPfPFD3; Prefoldin subunit 3; source: E. coli BL21 (λDE3), pET-28a(+), purified (Ni-NTA)) MSFDDLTDNTKSVRNIPGAKFIEHVTEFLQNKNEESILRLARELLLKYKFMEHAFVSRQINTQKKIPELKDALRVVQLLEKRKKIKEKKNLETFFPVEESLYARGIVQKTDKILLWLGANVMVEFPFDEATDLLNQHLERAINLSQEMDNELLWLHEQITTTEINISRIHNYIELKKGMMGKEVDKKTEQVN; 5.87

Q: Answer with reported pKd of recombinant PfPFD2 (6x-His-PfPFD2) (natural protein, Prefoldin subunit 2 of P. falciparum 3D7, PF3D7_1416900; CDS amplified from Pf3D7 cDNA; Resolved at 19 kDa on SDS-PAGE; also called rPfPFD2; Prefoldin subunit 2; source: E. coli BL21 (λDE3), pET-28a(+), purified (Ni-NTA)) METKSNVESPNISEPKESKLTYEQIEKDRVQLVSKIEELYQDVVEHKLVLEALENVPSDRRCYRMVGEVLVERTVGEIKPALMDHKNKVEQVIAECQKQLDQKNNEISNFIKSAKAGNLPGGIINGNPSEDTNNLNDKEKKSDGIIF
Result: 7.37

Q: Please give the documented pKd of recombinant PfPFD6 (6x-His-PfPFD6) (natural protein, Prefoldin subunit 6 of P. falciparum 3D7, PF3D7_0512000; CDS amplified from Pf3D7 cDNA; Resolved at 16 kDa on SDS-PAGE; also called rPfPFD6; Prefoldin subunit 6; source: E. coli BL21 (λDE3), pET-28a(+), purified (Ni-NTA)) MSQEKISEIIKDISALKTSCEKLNSQLDELITQKVENEMLLEEVKVLEDDSVLHKLVGLVLVKEEKSKCYDTISRRLQYITGEIENRKKVITNSEEKLRKLFSDLEAHAGQRKIPVPQA
Result: 6.49

Q: Look up and state reported pKd for recombinant PfPFD1 (6x-His-PfPFD1) (natural protein, Prefoldin subunit 1 of P. falciparum 3D7, PF3D7_1107500; CDS amplified from Pf3D7 cDNA; Resolved at 20 kDa on SDS-PAGE; also called rPfPFD1; Prefoldin subunit 1; source: E. coli BL21 (λDE3), pET-28a(+), purified (Ni-NTA)) MSNLYDILGKAVINKEKKDEFQNLILKSEGFIDDVLHEKLRERQKKRDEILQDLFDMEILIENLKLFVNMKDKSEVETLTSLGCDSYVYADIINKNKIFIQLGYEFYLEMTLEEAIKFLKKKINLYEEKLSYWNKQISHVKAHIQILMRAISNLT
Result: 6.07

Q: Indicate the recorded pKd value for this binder: recombinant PfPFD4 (6x-His-PfPFD4) (natural protein, Prefoldin subunit 4 of P. falciparum 3D7, PF3D7_0904500; CDS amplified from Pf3D7 cDNA; Resolved at 17 kDa on SDS-PAGE; also called rPfPFD4; Prefoldin subunit 4; source: E. coli BL21 (λDE3), pET-28a(+), purified (Ni-NTA)) MGDIKQNKYDLGLDMTVDDQKKIGKFTNLHYKEPLYEHKIKMMKENIMNIDSSIDEVSLAFDSNDIMLNIGDCFFKFDLDYIEEHLEDRKSEELANLNEMELEYKTKLNEKQKLKTELYAKFGNRIDLN
Result: 6.98

FYI, the data here is from paper PMC11295463.
